system: HEK-293T; experiment: Multiplex assay against HEK293T; type: toxicity, cell-based; conditions: human, 12 h, 1 µM, compound concentration 1 uM, replicate 1
The entries below come with measured Population Mitotic Cells (%) values attached.
Please answer using a numeric value trailed by its unit.

- Cc1cn(-c2cc(NC(=O)c3ccc4c(c3)CN(c3cncnc3)C[C@@H]4C)cc(C(F)(F)F)c2)cn1: 84%
- CCOc1cc(N2CCC(O)CC2)ccc1Nc1ncc2c(n1)N(C1CCCC1)CCC(=O)N2C: 82%
- CNC(=O)c1nn(C)c2c1C(C)(C)Cc1cnc(Nc3ccc(N4CCN(C)CC4)cc3)nc1-2: 71%

Requested field: Population Mitotic Cells (%). Item: `Cc1cc2c(cc1N1C(=O)c3cccc4c(CCCO)ccc(c34)C1=O)n(C)c(=O)n2C`
61%

Repeat for the following molecule: `Cl.Cl.Nc1ncnc2c1c(-c1cccc(OCc3ccccc3)c1)cn2[C@H]1C[C@@H](CN2CCC2)C1`
30%

Repeat for the following molecule: `O=C(O)c1ccc2cc(-c3ccc(O)c(C45CC6CC(CC(C6)C4)C5)c3)ccc2c1`
64%

Repeat for the following molecule: `CN(C)CCOc1ccc(-c2nc(-c3ccncc3)c(-c3ccc4c(c3)CC/C4=N\O)[nH]2)cc1`
74%

Repeat for the following molecule: `Nc1ccc(C(=O)Nc2cccc(-c3nc(N4CCOCC4)c4oc5ncccc5c4n3)c2)cn1`
33%
